target: HRgpA-6H (Porphyromonas gingivalis) (UniProt P28784); experiment: ELISA on coated HRgpA-6H
Ratio OD(Variant)/OD(WT) values, listed per item
property_name: Ratio OD(Variant)/OD(WT)

• KB001 mouse Fab FASEBA VH L63M (Fab, V domains shown) VH: EVQLKQSGPGLVAPSQSLSITCTVSGFSLSIYSVHWVRQPPGKGLEWLGMIWGGGSSDYNSAMKSRLSISKDNSKSQVFLKMNSLQTDDTAMYYCARNGNFYAMDYWGQGTSVTVSS VL: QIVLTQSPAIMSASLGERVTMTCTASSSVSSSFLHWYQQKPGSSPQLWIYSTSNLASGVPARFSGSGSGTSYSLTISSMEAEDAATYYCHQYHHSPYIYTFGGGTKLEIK = 0.915
• KB001 mouse Fab FASEBA VH N60T (Fab, V domains shown) VH: EVQLKQSGPGLVAPSQSLSITCTVSGFSLSIYSVHWVRQPPGKGLEWLGMIWGGGSSDYTSALKSRLSISKDNSKSQVFLKMNSLQTDDTAMYYCARNGNFYAMDYWGQGTSVTVSS VL: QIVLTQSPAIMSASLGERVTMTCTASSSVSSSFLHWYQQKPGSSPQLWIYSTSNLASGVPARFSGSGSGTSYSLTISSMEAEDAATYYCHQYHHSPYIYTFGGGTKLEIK = 0.823
• KB001 mouse Fab FASEBA VH S56M (Fab, V domains shown) VH: EVQLKQSGPGLVAPSQSLSITCTVSGFSLSIYSVHWVRQPPGKGLEWLGMIWGGGMSDYNSALKSRLSISKDNSKSQVFLKMNSLQTDDTAMYYCARNGNFYAMDYWGQGTSVTVSS VL: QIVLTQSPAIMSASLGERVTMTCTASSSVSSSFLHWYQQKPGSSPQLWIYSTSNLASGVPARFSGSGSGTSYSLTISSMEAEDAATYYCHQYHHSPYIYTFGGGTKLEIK = 0.92
• KB001 mouse Fab FASEBA VH S61Y (Fab, V domains shown) VH: EVQLKQSGPGLVAPSQSLSITCTVSGFSLSIYSVHWVRQPPGKGLEWLGMIWGGGSSDYNYALKSRLSISKDNSKSQVFLKMNSLQTDDTAMYYCARNGNFYAMDYWGQGTSVTVSS VL: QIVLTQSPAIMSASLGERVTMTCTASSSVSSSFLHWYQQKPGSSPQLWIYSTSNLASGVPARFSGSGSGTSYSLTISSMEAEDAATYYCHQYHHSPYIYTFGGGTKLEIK = 0.857
• KB001 mouse Fab FASEBA VH L63F (Fab, V domains shown) VH: EVQLKQSGPGLVAPSQSLSITCTVSGFSLSIYSVHWVRQPPGKGLEWLGMIWGGGSSDYNSAFKSRLSISKDNSKSQVFLKMNSLQTDDTAMYYCARNGNFYAMDYWGQGTSVTVSS VL: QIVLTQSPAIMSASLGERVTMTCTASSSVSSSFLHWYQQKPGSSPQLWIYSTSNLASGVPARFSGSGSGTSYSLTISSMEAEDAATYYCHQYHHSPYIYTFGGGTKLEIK = 0.85
• KB001 mouse Fab FASEBA VH G53S (Fab, V domains shown) VH: EVQLKQSGPGLVAPSQSLSITCTVSGFSLSIYSVHWVRQPPGKGLEWLGMIWSGGSSDYNSALKSRLSISKDNSKSQVFLKMNSLQTDDTAMYYCARNGNFYAMDYWGQGTSVTVSS VL: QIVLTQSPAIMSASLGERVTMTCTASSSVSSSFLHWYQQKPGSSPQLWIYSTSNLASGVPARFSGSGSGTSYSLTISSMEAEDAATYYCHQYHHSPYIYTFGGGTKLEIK = 0.861
• KB001 mouse Fab FASEBA VH S57M (Fab, V domains shown) VH: EVQLKQSGPGLVAPSQSLSITCTVSGFSLSIYSVHWVRQPPGKGLEWLGMIWGGGSMDYNSALKSRLSISKDNSKSQVFLKMNSLQTDDTAMYYCARNGNFYAMDYWGQGTSVTVSS VL: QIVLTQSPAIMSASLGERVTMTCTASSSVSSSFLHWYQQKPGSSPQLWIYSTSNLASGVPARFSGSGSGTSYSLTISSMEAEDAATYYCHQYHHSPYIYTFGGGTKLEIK = 0.85
• KB001 mouse Fab FASEBA VH S57H (Fab, V domains shown) VH: EVQLKQSGPGLVAPSQSLSITCTVSGFSLSIYSVHWVRQPPGKGLEWLGMIWGGGSHDYNSALKSRLSISKDNSKSQVFLKMNSLQTDDTAMYYCARNGNFYAMDYWGQGTSVTVSS VL: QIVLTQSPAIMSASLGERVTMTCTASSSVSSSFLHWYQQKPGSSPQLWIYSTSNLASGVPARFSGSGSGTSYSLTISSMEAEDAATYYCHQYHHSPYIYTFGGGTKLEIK = 0.91
• KB001 mouse Fab FASEBA VH S30H (Fab, V domains shown) VH: EVQLKQSGPGLVAPSQSLSITCTVSGFSLHIYSVHWVRQPPGKGLEWLGMIWGGGSSDYNSALKSRLSISKDNSKSQVFLKMNSLQTDDTAMYYCARNGNFYAMDYWGQGTSVTVSS VL: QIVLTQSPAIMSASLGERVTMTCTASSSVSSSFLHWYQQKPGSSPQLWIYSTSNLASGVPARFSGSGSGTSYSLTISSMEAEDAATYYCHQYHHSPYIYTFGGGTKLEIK = 0.955
• KB001 mouse Fab FASEBA VH D58G (Fab, V domains shown) VH: EVQLKQSGPGLVAPSQSLSITCTVSGFSLSIYSVHWVRQPPGKGLEWLGMIWGGGSSGYNSALKSRLSISKDNSKSQVFLKMNSLQTDDTAMYYCARNGNFYAMDYWGQGTSVTVSS VL: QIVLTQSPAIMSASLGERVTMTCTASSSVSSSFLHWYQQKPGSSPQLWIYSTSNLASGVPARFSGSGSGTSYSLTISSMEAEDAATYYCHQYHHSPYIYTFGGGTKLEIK = 0.984
